# maps each entry to its z-score
assay-summary: MM1S myeloma cell viability, profiling panel, resazurin fluorescence, basal, 24 h, PK04 Diversity Set (AID 1174);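 also: MM1S multiple myeloma cell line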
measurement-parameters: higher = more signal, called active from +8 up or from −8 down
Reply with the value as a number alone.

[[record]]
compound = "COCCCNC(=O)[C@@]1(Cc2ccccc2I)c2ccccc2C(=O)N(Cc2ccccc2C(F)(F)F)[C@H]1c1ccc(CO)cc1"
result_number = 0.377

[[record]]
compound = "O=C(O)C1=CC[C@H]2C(=O)N(c3ccccc3)C(=O)[C@@H]12"
result_number = -0.849

[[record]]
compound = "[N-]=[N+]=NCc1ccccc1[C@H]1OC(c2ccc(OCCCO)cc2)=N[C@@]1(Cc1ccccc1N=[N+]=[N-])C(=O)N1CCOCC1"
result_number = -2.46


Ask: Which z-score is reported for this compound? CC1CC/C=C\[C@H]2OC34C=CCN(CCN5CCOCC5)C(=O)[C@H]3N(C(CO)C(C)C)C(=O)[C@@H]4C2C(=O)O1 (some centres undefined)
Result: -0.885

---

target-desc: NADPH oxidase 5 (Homo sapiens) (UniProt Q96PH1)
Sequence (Q96PH1 whole entry, looked up): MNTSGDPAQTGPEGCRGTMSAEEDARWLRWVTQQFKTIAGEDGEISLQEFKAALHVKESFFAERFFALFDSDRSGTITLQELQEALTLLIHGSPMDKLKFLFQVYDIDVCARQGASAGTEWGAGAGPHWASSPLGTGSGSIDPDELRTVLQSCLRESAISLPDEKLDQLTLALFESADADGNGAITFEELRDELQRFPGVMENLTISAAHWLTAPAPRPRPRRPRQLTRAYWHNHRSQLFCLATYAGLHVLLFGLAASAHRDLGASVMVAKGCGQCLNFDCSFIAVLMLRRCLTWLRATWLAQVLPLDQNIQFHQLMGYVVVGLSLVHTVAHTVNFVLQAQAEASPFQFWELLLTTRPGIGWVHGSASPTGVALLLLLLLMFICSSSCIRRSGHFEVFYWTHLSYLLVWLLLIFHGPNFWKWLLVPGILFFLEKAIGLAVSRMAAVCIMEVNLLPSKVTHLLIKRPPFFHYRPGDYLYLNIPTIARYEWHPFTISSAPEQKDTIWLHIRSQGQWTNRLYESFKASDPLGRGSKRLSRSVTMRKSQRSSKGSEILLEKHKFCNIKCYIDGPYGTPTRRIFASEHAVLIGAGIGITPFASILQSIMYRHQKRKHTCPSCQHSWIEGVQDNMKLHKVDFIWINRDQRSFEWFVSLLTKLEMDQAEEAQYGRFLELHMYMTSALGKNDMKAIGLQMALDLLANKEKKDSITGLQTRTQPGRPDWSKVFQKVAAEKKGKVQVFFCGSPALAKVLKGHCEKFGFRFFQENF
assay-summary: NOX5-dependent H2O2 signal modulators, primary screen, NOX inhibitor project, cell-based, HEK293-NOX5, Amplex Red fluorescence (AID 1161)
measurement-parameters: HEK293-NOX5, ionomycin, 45 min, higher = more signal
# z-score values compiled below
Write the value as a bare number.

Use the examples below as a reference point.
[[record]]
compound = "C=C(CCCC)C(=O)CC[C@H](OC(=O)c1ccccc1-c1ccccc1C(=O)O)c1cccc(OCCO)c1"
result_number = -1.74

[[record]]
compound = "CC(C)c1ccc(NN2C(C(O)c3ccccc3)C=CC3C(=O)N(c4ccccc4)C(=O)C32)cc1 (centres undefined)"
result_number = -2.48

[[record]]
compound = "C[C@]12C(=O)N(CCO)[C@@H]3C(=O)N(c4ccc(Cl)cc4)CC=CC31O[C@@H]1/C=C\\CCCOC(=O)C12 (some centres undefined)"
result_number = 2.65


Moving on to the next compound.
Ask: Value lookup for z-score; key = N#Cc1ccc(NN2C(C(O)c3ccc(B(O)O)cc3)C=CC3CN(c4ccccc4)C(=O)C32)cc1 (centres undefined)
Result: -4.31

---

# Lookup of reported composite z-score keyed by entry
target-desc: Torsin-1A (Homo sapiens)
assay-summary: torsin A binders from cell lysate, primary screen, small-molecule microarray, wild-type, 635/667 nm (AID 1149)
measurement-parameters: COS7 hTOR1A-WT lysate, 635 nm fluorescence, higher = more signal
When you answer, write just the number.

[[record]]
cpd_smiles = "COC(=O)C(CC#Cc1ccc2c(c1)[C@]1(C(=O)N2)[C@H](C(=O)NC[C@H](O)c2ccccc2)[C@H]2C(=O)O[C@H](c3ccccc3)[C@H](c3ccccc3)N2[C@@H]1c1ccc(O)cc1)C(=O)OC"
result_number = -0.93

[[record]]
cpd_smiles = "CCOC(=O)C[C@H]1[C@H](OC(=O)Cc2ccc3c(c2)OCO3)[C@@H](NC(=O)CC(C)C)c2cc(OCCCO)ccc2N1C(=O)c1ccc2ccccc2n1"
result_number = 0.384


Attention now turns to another entry.
Ask: composite z-score for `CO[C@H]1O[C@H](CO)[C@@H](OC(=O)Nc2cccc(F)c2)[C@H](OC(=O)Nc2ccc3c(c2)OCO3)[C@@H]1OC(=O)Nc1ccc2c(c1)OCO2` ?
Result: 1.17

---

Test system: XIP peptide (Xip251-270)
assay-summary: small-molecule binders of XIP peptide, primary screen, biochemical, small-molecule microarray, fluorescence 635/667 nm, 0.5 µg/mL protein (AID 1183)
measurement-parameters: small-molecule microarray binding, fluorescence 635 nm; higher = more signal
endpoint-name: composite z-score
Answer as a number with no unit attached.

Worked examples, 2 compounds total:
[[record]]
cpd_smiles = "C=CCNC(=O)[C@H]1[C@@H]2C(=O)O[C@@H](c3ccccc3)[C@@H](c3ccccc3)N2[C@@H](c2ccc(OCCO)cc2)[C@]12C(=O)N(C(=O)OCCOC)c1ccc(C#CCNC(N)=O)cc12"
result_number = 0.579

[[record]]
cpd_smiles = "CC(C)N1C(=O)[C@@]2(Cc3ccccc31)c1ccccc1C(=O)N(Cc1ccccc1C(F)(F)F)[C@H]2c1ccc(CO)cc1"
result_number = 0.471


Here's the next entry for you.
Ask: Please look up its composite z-score: `CN(C)C(=O)[C@]1(CCS(=O)(=O)c2ccccc2)N=C(c2ccc(OCCCO)cc2)O[C@@H]1c1ccccc1CN=[N+]=[N-]`
Result: 0.816

---

Item-by-item account of z-score
assay-summary: FRG1 promoter luciferase signal modulators, primary screen, FRG1 inhibition for FSHD, cell-based, C2C12 myotubes, firefly/Renilla luciferase, luminescence (AID 1084)
measurement-parameters: higher = more signal, called active from +8 up or from −8 down
# respond with the number and nothing more

Ask: Endpoint output: z-score of `[N-]=[N+]=NCc1ccccc1[C@H]1OC(c2ccc(OCCCO)cc2)=N[C@@]1(CCS(=O)(=O)c1ccccc1)C(=O)NCCN1CCOCC1` . Value?
Result: 3.26

Ask: Look up z-score for this compound: CN1C(=O)C2C(C1=O)C1C=C(CCCO)C2C(C2CC2)N1C (stereo not drawn)
Result: -0.818

Ask: Need z-score, item CN1C(=O)C2CC=C(C3=CCO[C@@H]3[C@H]3CCCN3S(=O)(=O)c3ccccc3[N+](=O)[O-])CC2C1=O (stereo partly drawn)
Result: -0.869

Ask: What value of measured z-score is listed for `O=C(O)C1=CC[C@H]2C(=O)N(c3ccccc3)C(=O)[C@@H]12` ?
Result: -0.127

---

System: wheat germ agglutinin (Triticum aestivum), Alexa647-labelled
assay-summary: wheat germ agglutinin binders on compound microarrays, profiling panel, artefact control for SMM control-protein annotation, biochemical, small-molecule microarray, 635/667 nm fluorescence (AID 1140);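 also: score merges 667 nm feature emission with signal to noise over triplicate slides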
measurement-parameters: WGA-A647 binding, 635 nm fluorescence, higher = more signal
Kindly return Condition met if reported composite z-score is no lower than 0.2; return Condition not met if it is lower.

Before answering, review these 6 worked examples.
[[record]]
cpd_smiles = "COc1ccc(C(=O)Nc2ccc(CN3C(=O)[C@]4(O[C@H](CC(=O)N(CCO)Cc5ccccc5)[C@@H]([Si](C)(C)c5ccc(OC)cc5)[C@@H]4C)c4ccccc43)cc2)cc1"
group = "Condition not met"

[[record]]
cpd_smiles = "CC(C)N1C(=O)[C@@]2(Cc3ccccc31)c1ccccc1C(=O)N(Cc1ccccc1C(F)(F)F)[C@H]2c1ccc(CO)cc1"
group = "Condition not met"

[[record]]
cpd_smiles = "O=C1O[C@H](c2ccccc2)[C@H](c2ccccc2)N2[C@H]1[C@@H](C(=O)Nc1nc3ccccc3s1)[C@]1(C(=O)Nc3ccccc31)[C@H]2c1ccccc1OCCO"
group = "Condition met"

[[record]]
cpd_smiles = "CC(C)(C)OC(=O)N1[C@@H](C=C(Br)Br)COC1(C)C"
group = "Condition not met"

[[record]]
cpd_smiles = "C=C(C(=O)CC[C@@H](OC(=O)c1ccccc1-c1ccccc1C(=O)O)c1cccc(OCCO)c1)C(C)C"
group = "Condition met"

[[record]]
cpd_smiles = "C=C[C@@H](CO)NS(=O)(=O)c1ccc(Br)cc1"
group = "Condition not met"


From here, focus on the item given below.
Ask: Would you say `COC(=O)C[C@H]1O[C@]2(C(=O)N(C)c3ccccc32)[C@@H](C)[C@@H]1[Si](C)(C)c1ccccc1` shows composite z-score at minimum 0.2?
Result: Condition met

---

Test system: Human papillomavirus type 1a E7 protein (residues 1-88)
assay-summary: HPV1a E7 small-molecule binders, primary screen, biochemical, small-molecule microarray, residues 1-88, 635 nm (AID 1129)
measurement-parameters: small-molecule microarray binding, fluorescence 635 nm; higher = more signal
Measured composite z-score, listed per entry for reference.
# respond with the number and nothing more

Here is how some compounds turned out for composite z-score.
[[record]]
compound = "C=CCNC(=O)[C@H]1[C@@H]2C(=O)O[C@@H](c3ccccc3)[C@@H](c3ccccc3)N2[C@@H](c2ccc(O)cc2)[C@]12C(=O)Nc1ccc(C#CCC(C(=O)OC)C(=O)OC)cc12"
result_number = 1.08

[[record]]
compound = "Cc1ccc(S[C@]2(C(=O)NCc3ccccc3)CC(=O)N(Cc3ccccc3Cl)[C@@H]2c2ccc(CO)cc2)cc1"
result_number = -0.561

[[record]]
compound = "CC[C@@H](O[Si](C#C[Si](C(C)C)(C(C)C)C(C)C)(C(C)C)C(C)C)c1cn([C@H](C)c2ccccc2)nn1"
result_number = 0.57

[[record]]
compound = "COc1ccc([Si](C)(C)[C@H]2[C@H](CCO)O[C@@]3(C(=O)N(Cc4ccccc4)c4ccc(NC(=O)[C@H](C)O)cc43)[C@@H]2C)cc1"
result_number = 1.16

[[record]]
compound = "CC[C@@H](O[Si](C#C[Si](C(C)C)(C(C)C)C(C)C)(C(C)C)C(C)C)c1cn(Cc2cccc(Cl)c2)nn1"
result_number = 0.79

[[record]]
compound = "CCCCCCCCCCC(O)C1C=CC2C(=O)N(C)C(=O)C2N1Nc1ccccc1 (stereo not drawn)"
result_number = -0.339

[[record]]
compound = "N#Cc1ccc(NN2C(C(O)c3ccc(B(O)O)cc3)C=CC3CN(c4ccccc4)C(=O)C32)cc1 (stereo not drawn)"
result_number = -0.633

[[record]]
compound = "C=C(COC)C(=O)CC[C@H](OC(C)=O)c1ccccc1OCCO"
result_number = -0.538

[[record]]
compound = "O=C1N(Cc2ccccc2)Cc2ccccc2C[C@@]12COC(c1ccc(OCCCO)cc1)=N2"
result_number = 1.16

[[record]]
compound = "COCCCNC(=O)[C@@]1(c2ccc([N+](=O)[O-])cc2)CC(=O)N(C2CCCCC2)[C@@H]1c1ccc(CO)cc1I"
result_number = 1.2


Ask: What does the record list as composite z-score for `Cc1ccc(S[C@]2(C(=O)NCc3ccccc3)CC(=O)N(Cc3ccccc3C(F)(F)F)[C@@H]2c2ccc(CO)cc2I)cc1` ?
Result: -0.645

Ask: Record request: composite z-score value, item `COc1ccc([Si](C)(C)[C@@H]2[C@@H](CC(=O)N3CCC[C@H]3CO)O[C@]3(C(=O)N(Cc4cccc(N5C(=O)c6cccc7cccc5c67)c4)c4ccccc43)[C@H]2C)cc1`
Result: 1.03

Ask: Could you tell me which composite z-score is on file for `C=C[C@H](C)[C@@H](OC(=O)Nc1ccc(SC)cc1)c1ccc(OCCO)cc1` ?
Result: 1.14

Ask: Consider the compound `CN(C)CCCC[C@@H]1NC(=O)[C@H]2C[C@@H](C(=O)NCCCCCCNC(=O)CS)[C@@H](c3cccc(OCCO)c3)N2C1=O` and give its measured composite z-score.
Result: 0.593

Ask: Quick check: composite z-score of `COCCOC(=O)N1C(=O)[C@@]2(c3cc(C#CCC(C(=O)OC)C(=O)OC)ccc31)[C@H](C(N)=O)[C@H]1C(=O)O[C@H](c3ccccc3)[C@H](c3ccccc3)N1[C@@H]2c1ccccc1OCCO` ?
Result: 1.09

Ask: Can you share its composite z-score? I mean this compound: `CC(C)C[C@@H]1NC(=O)[C@@H]2C[C@H](C(=O)NCCCCCNC(=O)CS)[C@H](c3ccc(O)cc3)N2C1=O`
Result: -0.0315
